test: Neurotoxicity against human SH-SY5Y cells assessed as survival rate incubated for 24 hrs by MTT assay relative to control
Format: toxicity, cell-based
Parameters: concentration or dose not given beside the values
condition parameters: read-out: Survival
measure: viability at 24 h

Some entries whose results are on file:
CCCN(CCCc1ccccc1)Cc1ccc2ccccc2c1 62.6%
Cc1ccccc1NC(=O)CN(Cc1ccc2ccccc2c1)Cc1ccco1 69.4%
CCCCN(CCCc1ccccc1)Cc1ccc2ccccc2c1 85.5%
CC(C)CN(CCCc1ccccc1)Cc1ccc2ccccc2c1 155%
Cc1cccc(NC(=O)CN(Cc2ccc3ccccc3c2)Cc2ccco2)c1 91.7%
CCCN(CC(=O)Nc1ccccc1C)Cc1ccc2ccccc2c1 52.8%
Cc1ccccc1NC(=O)CN(Cc1ccc2ccccc2c1)CC(C)C 47.8%

Next item in the queue.
What value of measured viability at 24 h is listed for `O=C(CN(Cc1ccc2ccccc2c1)Cc1ccco1)Nc1ccccc1` ?
90.7%
